Experiment: Plasma protein binding, rapid equilibrium dialysis
Type: in vitro ADME
Conditions: human, read-out: Plasma protein binding rate (converted)
Observed Property: fraction unbound
Field format: numeric only.

Sample COc1ccc(CN2C3CC2CN(c2ccc(-c4cc(N5CC(C)(O)C5)cn5ncc(C#N)c45)cn2)C3)cn1 [SY-5007] ; fraction unbound observed: 0.061

----------
Assay: Phase 1 trial: plasma pharmacokinetics
Format: in vivo
Settings: human, 160 mg, Cycle 1 Day 1, 160 mg BID (n = 23), read-out: Cmax mean
Observed Property: Cmax (ng/mL)
Numeric answer only, unit ng/mL assumed.

Sample COc1ccc(CN2C3CC2CN(c2ccc(-c4cc(N5CC(C)(O)C5)cn5ncc(C#N)c45)cn2)C3)cn1 [SY-5007] ; Cmax observed: 3470

----------
Assay: Phase 1 trial: plasma pharmacokinetics
Type: in vivo
Details: human, 40 mg, Cycle 1 Day 1, 40 mg BID (n = 3), read-out: AUC0–12 h mean
From the text: Serial plasma samples were also collected in each patient after the first dose and during multiple-dose administration on Cycle 1 Day 28.
Observed Property: AUC(0-t) (ng·h/mL)
Numeric answer only, unit ng·h/mL assumed.

Sample COc1ccc(CN2C3CC2CN(c2ccc(-c4cc(N5CC(C)(O)C5)cn5ncc(C#N)c45)cn2)C3)cn1 [SY-5007] ; AUC(0-t) observed: 2720

----------
Experiment: Phase 1 trial: plasma pharmacokinetics
Type: in vivo
Details: human, 20 mg, Cycle 1 Day 1, 20 mg QD (n = 1), read-out: T1/2 mean (converted)
Observed Property: half-life (h)
Numeric answer only, unit h assumed.

Sample COc1ccc(CN2C3CC2CN(c2ccc(-c4cc(N5CC(C)(O)C5)cn5ncc(C#N)c45)cn2)C3)cn1 [SY-5007] ; half-life observed: 6.8

----------
Experiment: Phase 1 trial: plasma pharmacokinetics
Assay type: in vivo
Details: human, 20 mg, Cycle 1 Day 1, 20 mg BID (n = 1), read-out: Tmax mean
Observed Property: Tmax (h)
Numeric answer only, unit h assumed.

Sample COc1ccc(CN2C3CC2CN(c2ccc(-c4cc(N5CC(C)(O)C5)cn5ncc(C#N)c45)cn2)C3)cn1 ; Tmax observed: 4

----------
Target: CYP2C8 (Homo sapiens, UniProt P10632)
Sequence (P10632 1-490): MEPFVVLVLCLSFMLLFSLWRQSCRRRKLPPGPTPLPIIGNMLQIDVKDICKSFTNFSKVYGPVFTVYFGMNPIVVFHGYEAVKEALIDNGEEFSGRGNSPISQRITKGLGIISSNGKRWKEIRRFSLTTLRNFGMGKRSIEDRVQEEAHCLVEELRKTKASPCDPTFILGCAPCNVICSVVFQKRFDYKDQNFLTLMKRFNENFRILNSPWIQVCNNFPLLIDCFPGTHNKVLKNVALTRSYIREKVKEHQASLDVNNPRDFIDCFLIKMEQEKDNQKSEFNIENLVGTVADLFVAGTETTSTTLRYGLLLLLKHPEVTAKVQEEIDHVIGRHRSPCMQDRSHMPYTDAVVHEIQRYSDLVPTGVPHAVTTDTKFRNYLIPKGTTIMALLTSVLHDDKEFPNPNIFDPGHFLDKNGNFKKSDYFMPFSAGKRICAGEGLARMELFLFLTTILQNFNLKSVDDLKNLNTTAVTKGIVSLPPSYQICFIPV
Observed Property: pIC50
Answer as the number alone; pIC50 is minus log10 of concentration in mol/L.

Sample COc1ccc(CN2C3CC2CN(c2ccc(-c4cc(N5CC(C)(O)C5)cn5ncc(C#N)c45)cn2)C3)cn1 ; pIC50 observed: 5.01
